Provenance of the data: the supplement of paper PMC7156485

System: HCC1569;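 also: TDF is a line of transformed human dermal fibroblasts of mesenchymal origin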
Test: H1.0 immunofluorescence intensity relative to DMSO (% of DMSO); higher = stronger H1.0 induction, active = 140 or more
Conditions: concentration: 10 µM; 24 h
Measured H1.0 immunofluorescence intensity by item
quantity kind: H1.0 immunofluorescence intensity

> print(dat)
                                   compound  experimental.system                      quantity.kind  endpoint.result
1  CN1CC(NS(=O)(=O)N(C)C)CC2c3cccc4c3c(cn4C)CC21.Cl (stereo not given) [Mesulergine hydrochloride]              HCC1569  H1.0 immunofluorescence intensity  94.2 (inactive)
2  Cl.c1ccc2c(N3CCNCC3)cccc2c1 [1-(1-Naphthyl)piperazine hydrochloride]              HCC1569  H1.0 immunofluorescence intensity   106 (inactive)
3         Cc1[nH]c2ccc(Cl)cc2c1C1=CCNCC1.Cl              HCC1569  H1.0 immunofluorescence intensity   120 (inactive)
4                  c1ccc2c3c([nH]c2c1)CNCC3              HCC1569  H1.0 immunofluorescence intensity  88.4 (inactive)
5  Cc1ncc(CNC(=O)N(CCCl)N=O)c(N)n1.Cl [Nimustine hydrochloride]              HCC1569  H1.0 immunofluorescence intensity  94.4 (inactive)
